# assay.target: recombinant 5-LOX (Homo sapiens, UniProt P09917)
# Sequence (P09917 whole entry): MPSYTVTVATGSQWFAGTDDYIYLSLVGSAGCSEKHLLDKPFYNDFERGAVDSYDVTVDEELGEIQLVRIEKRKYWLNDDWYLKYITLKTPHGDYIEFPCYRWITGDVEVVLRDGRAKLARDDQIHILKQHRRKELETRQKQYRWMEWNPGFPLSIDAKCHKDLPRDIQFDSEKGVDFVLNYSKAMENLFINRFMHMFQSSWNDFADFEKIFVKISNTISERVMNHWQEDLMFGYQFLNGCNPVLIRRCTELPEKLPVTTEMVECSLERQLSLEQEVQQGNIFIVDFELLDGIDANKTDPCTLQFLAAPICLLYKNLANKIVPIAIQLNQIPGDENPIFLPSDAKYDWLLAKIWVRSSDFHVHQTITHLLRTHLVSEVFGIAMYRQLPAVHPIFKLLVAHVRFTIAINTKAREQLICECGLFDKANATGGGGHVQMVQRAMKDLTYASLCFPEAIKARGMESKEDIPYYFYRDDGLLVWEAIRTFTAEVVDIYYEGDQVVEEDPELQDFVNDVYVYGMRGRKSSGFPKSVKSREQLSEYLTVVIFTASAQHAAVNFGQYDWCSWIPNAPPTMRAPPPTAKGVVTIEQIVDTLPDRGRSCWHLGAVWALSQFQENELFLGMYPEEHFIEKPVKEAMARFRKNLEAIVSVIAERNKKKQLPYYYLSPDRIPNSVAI
# assay.method.text: 5-LOX fluorescent assay
# Type: biochemical
# test.settings: several values in one cell = repeat determinations; read-out: IC50 (μM) values for in vitro lipoxygenase inhibition, 5-LOX
Labelling: IC50 reported below 0.7 µM becomes 1.0; at or above becomes 0.0.

Example cases with answers are listed next.
Fc1ccc2[nH]c3cc(C(F)(F)F)c(NCC4(Cn5cncn5)COC4)cc3c2c1 [SS20308-0295-01] ... 1.0
CN(C)CCOc1cc2c(cc1-c1ccccc1[N+](=O)[O-])[nH]c1ccccc12 [SS20308-0076-01] ... 0.0

IN: Criterion: IC50 strictly below 0.7 µM. Is it met by CN(C)CCOc1cc2c3ccccc3[nH]c2c2[nH]c3ccccc3c12 [SS20308-0103-01] ?
OUT: 1.0

* * *

# assay.target: recombinant 5-LOX (Homo sapiens)
# assay.method.text: 5-LOX fluorescent assay
# Type: biochemical
# test.settings: several values in one cell = repeat determinations; read-out: IC50 (μM) values for in vitro lipoxygenase inhibition, 5-LOX
property: IC50
Give the number first and the unit second.

The following compounds have reported results that may help.
CN(C)CCOc1cc2c(cc1CNc1ccccc1)[nH]c1ccccc12 ... 1.04 µM
COc1ccc2c([nH]c3ccc(F)cc32)c1OCCN(C)C ... 32.2 µM
c1ccc2c(c1)CCc1cc(C3CC3)c(NCCn3cncn3)cc1N2 ... 0.55 µM

Moving on to another compound below.
IN: Give IC50 (recombinant 5-LOX (Homo sapiens)) of the following compound: CN(C)CC1(COc2c3[nH]c4ccc(F)cc4c3c(F)c3[nH]c4ccc(F)cc4c23)COC1
OUT: 0.08 µM

* * *

# assay.target: recombinant 12-LOX enzyme (Homo sapiens)
# Sequence (P18054 whole entry): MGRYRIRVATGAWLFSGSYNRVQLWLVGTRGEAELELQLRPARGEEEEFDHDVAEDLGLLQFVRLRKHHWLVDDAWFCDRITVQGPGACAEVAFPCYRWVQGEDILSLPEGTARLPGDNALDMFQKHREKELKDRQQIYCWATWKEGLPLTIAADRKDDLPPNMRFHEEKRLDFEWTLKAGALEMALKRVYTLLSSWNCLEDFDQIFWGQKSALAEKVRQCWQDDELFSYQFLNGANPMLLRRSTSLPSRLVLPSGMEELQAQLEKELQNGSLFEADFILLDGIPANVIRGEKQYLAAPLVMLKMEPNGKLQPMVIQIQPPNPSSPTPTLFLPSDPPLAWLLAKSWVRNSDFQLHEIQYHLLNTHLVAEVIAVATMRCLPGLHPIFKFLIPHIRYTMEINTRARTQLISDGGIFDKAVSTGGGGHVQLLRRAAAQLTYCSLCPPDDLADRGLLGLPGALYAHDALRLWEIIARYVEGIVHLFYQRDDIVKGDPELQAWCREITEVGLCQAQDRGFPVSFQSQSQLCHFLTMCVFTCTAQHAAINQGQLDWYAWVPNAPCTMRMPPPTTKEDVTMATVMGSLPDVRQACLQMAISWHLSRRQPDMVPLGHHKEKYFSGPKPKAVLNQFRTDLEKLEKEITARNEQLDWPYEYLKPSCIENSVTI
# assay.method.text: 12-LOX fluorescent assay
# Type: biochemical
# test.settings: several values in one cell = repeat determinations; read-out: IC50 (μM) values for in vitro lipoxygenase inhibition, 12-LOX
property: IC50 (µM)
Answers are plain numbers, in µM.

Some compounds with known IC50 results, for comparison:
CN(C)CCOc1ccc(Cl)c2c1-c1[nH]c3ccc(F)cc3c1CS2 [SS20308-0093-01] ... 1.69
COc1ccc2c([nH]c3ccc(F)cc32)c1OCCN(C)C [SS20308-0007-01] ... 22

IN: Look at this compound and give its reported IC50. CN(C)CCc1cc(Nc2ccc(F)cc2Cl)cc2c1[nH]c1ccccc12 [SS20308-0277-01]
OUT: 0.04

* * *

# assay.target: recombinant 15-LOX enzyme (Homo sapiens, UniProt P16050)
# Sequence (P16050 1-662): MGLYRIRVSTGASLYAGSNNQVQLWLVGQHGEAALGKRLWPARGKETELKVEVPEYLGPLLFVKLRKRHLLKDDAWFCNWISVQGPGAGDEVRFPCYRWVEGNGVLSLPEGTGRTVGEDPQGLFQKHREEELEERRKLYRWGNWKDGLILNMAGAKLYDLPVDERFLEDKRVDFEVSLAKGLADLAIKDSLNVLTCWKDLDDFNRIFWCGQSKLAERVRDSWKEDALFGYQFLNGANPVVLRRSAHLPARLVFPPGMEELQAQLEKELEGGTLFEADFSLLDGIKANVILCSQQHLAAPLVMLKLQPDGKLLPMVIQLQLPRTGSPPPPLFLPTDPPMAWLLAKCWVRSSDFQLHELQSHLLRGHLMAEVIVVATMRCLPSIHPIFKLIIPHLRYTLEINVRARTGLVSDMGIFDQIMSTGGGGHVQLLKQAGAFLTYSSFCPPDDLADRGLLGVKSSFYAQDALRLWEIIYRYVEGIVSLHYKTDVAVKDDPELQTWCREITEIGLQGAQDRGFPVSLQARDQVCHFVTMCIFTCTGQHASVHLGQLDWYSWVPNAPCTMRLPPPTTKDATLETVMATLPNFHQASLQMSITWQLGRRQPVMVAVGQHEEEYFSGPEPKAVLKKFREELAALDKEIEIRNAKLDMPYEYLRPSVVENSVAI
# assay.method.text: 15-LOX fluorescent assay
# Format: biochemical
# test.settings: several values in one cell = repeat determinations; read-out: IC50 (μM) values for in vitro lipoxygenase inhibition, 15-LOX
property: log10(IC50) (log10 of the value in µM)
Recall that a logarithmic scale is used here: each number is log10 of IC50 in µM.

Fc1c(NCC2(Cn3cncn3)COC2)ccc2[nH]c3ccccc3c12 ... -0.82
CN(C)C(=O)CC(c1ccccc1)c1ccc2[nH]c3ccccc3c2c1 (stereo not shown) ... 0.66
CN(C)CCOc1cc2c(cc1CNc1ccccc1)[nH]c1ccccc12 ... -0.15

Parameter requested: log10(IC50). Apply to each item below.
1. c1ccc(-c2cc(NCCCn3cncn3)cc3c2[nH]c2ccccc23)cc1
2. Fc1ccc2[nH]c3cc4c(c(F)c3c2c1)CCN4CCn1cncn1

OUT:
1. -1.05
2. 0.06

* * *

# assay.target: recombinant 5-LOX (Homo sapiens, UniProt P09917)
# assay.method.text: 5-LOX fluorescent assay
# Type: biochemical
# test.settings: several values in one cell = repeat determinations; read-out: IC50 (μM) values for in vitro lipoxygenase inhibition, 5-LOX
property: IC50
Provide the measurement as a number trailed by its unit.

Sample records with IC50:
c1ccc(N(CCCn2cncn2)c2ccc3c(c2)[nH]c2ccccc23)cc1 ... 0.62 µM
Fc1cc2[nH]c3ccccc3c2cc1NCC1(Cn2cncn2)COC1 ... 0.2 µM
CN(C)CCc1cc(Nc2ccc(F)cc2Cl)cc2c1[nH]c1ccccc12 ... 0.32 µM
CN(C)C/C=C\c1c2[nH]c3ccccc3c2cc2[nH]c3ccccc3c12 ... 0.04 µM
CN(C)CCOc1ccc(Cl)c2c1-c1[nH]c3ccc(F)cc3c1CS2 ... 1.46 µM

For each entry beneath this line, provide reported IC50.
1. c1ccc(NC2CCc3[nH]c4ccccc4c3C2)cc1 (centres unmarked)
2. Fc1ccc2[nH]c3cc4c(cc3c2c1)CCN4CCn1cncn1
3. COc1c2[nH]c(-c3ccccc3)nc2c(F)c2c1[nH]c1ccccc12
4. CN(C)CCOc1c2nc(-c3ccccc3)[nH]c2cc2[nH]c3ccccc3c12
5. Fc1ccc2[nH]c3cc4c(c(F)c3c2c1)CCN4CCn1cncn1
6. CN(C)CCCOc1cccc2c1-c1[nH]c3ccccc3c1CS2

OUT:
["3.75 µM", "0.2 µM", "0.72 µM", "1.02 µM", "0.59 µM", "0.47 µM"]
